The following compounds are listed with their measured IC50 values.
target: JAK2 (Homo sapiens (Human), UniProt O60674); assay: Jak Biochemical HTRF Assay (JAK2); settings: recombinant purified GST-tagged catalytic domain, [ATP] 8.5 μM, [E] 0.052 nM
Sequence (O60674 849-1124): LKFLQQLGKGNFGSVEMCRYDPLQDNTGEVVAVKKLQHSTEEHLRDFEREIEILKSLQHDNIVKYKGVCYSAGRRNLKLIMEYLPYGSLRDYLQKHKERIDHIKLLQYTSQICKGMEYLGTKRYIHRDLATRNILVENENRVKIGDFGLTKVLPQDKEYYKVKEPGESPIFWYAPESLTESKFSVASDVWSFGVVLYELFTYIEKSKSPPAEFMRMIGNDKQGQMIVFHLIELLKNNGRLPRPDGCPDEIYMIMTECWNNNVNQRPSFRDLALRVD
Quick note: give the figure in pM, leave out the unit.

# example entries with known answers
1. CCC1(n2nc(Nc3ccc(C(=O)N4C[C@@H]5C[C@H]4CO5)c(C)c3)c3c(=O)[nH]ccc32)CCN(C(=O)OC(C)(C)C)CC1 [Example 2-22] : 440
2. CCc1cc(Nc2nn(C3(CC)CCN(C(=O)OC(C)(C)C)CC3)c3cc[nH]c(=O)c23)ccc1C(=O)N1CCOCC1 [Example 2-24] : 840
3. CCC1(n2nc(Nc3ccc(C(=O)N4CCOC[C@H]4C(C)C)c(C)c3)c3c(=O)[nH]ccc32)CCN(C(=O)OC(C)(C)C)CC1 [Example 3-8] : 1010
4. CCC1(n2nc(Nc3ccc(C(=O)N4CC[S+]([O-])CC4)c(C)c3)c3c(=O)[nH]ccc32)CCN(C(=O)OC(C)(C)C)CC1 [Example 3-11] : 250
5. CCC1(n2nc(Nc3ccc(C(C)(O)C(F)(F)F)cc3)c3c(=O)[nH]ccc32)CCN(C(=O)OC(C)(C)C)CC1 (stereo not drawn) [Example 2-42] : 4620

Next compound, IC50 to be filled in.
// lookup IC50 for CCC1(n2nc(Nc3ccc(C(=O)N4CCOC5(CCCC5)C4)c(C)c3)c3c(=O)[nH]ccc32)CCN(C(=O)OC(C)(C)C)CC1 [Example 3-3]
1530
